# Assay comment: chemical genetic growth profiling, strain panel (AID 1159580);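 also: tested at 20 µM; growth read once vehicle control cultures reached saturation at 30 °C; 1 = growth at the plate median or of vehicle wells; lower values mean less growth of the strain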
# Applied conditions: S. cerevisiae deletion strains, growth OD, locus YLR320W, strain mms22, hits give low values
The whole screen tested about 5,500 compounds, of which about 2,000 (36%) were called active. Not shown: some 18% with an inconclusive outcome. Some of the results follow.

Compound | normalized growth
COC1CC2CCC(C)C(O)(O2)C(=O)C(=O)N2CCCCC2C(=O)OC(C(C)CC2CCC(O)C(OC)C2)CC(=O)C(C)/C=C(\C)C(O)C(OC)C(=O)C(C)CC(C)/C=C/C=C/C=C/1C (centres undefined) | 0.0745
O=C(O)c1ccccc1 | 0.943
O=C(O)c1ccc(S(=O)(=O)N(Cl)Cl)cc1 | 1.05
N[C@@H](CCC(=O)N[C@@H](CS)C(=O)NCC(=O)O)C(=O)O | 1.02
COC(=O)c1c(C)c2c(c(C)c1O)OC(=O)c1c(C)c(Cl)c(O)c(Cl)c1O2 | 0.932
Nc1ccc(S(=O)(=O)NC(=O)c2ccccc2)cc1 | 0.985
CCC(C)C(=O)OC1[C@@H]2CC3=C4CC(=O)O[C@@H](c5ccoc5)[C@]4(C)CCC3[C@@](C)(C2=O)[C@@H](CC(=O)OC)C1(C)C (some centres undefined) | 1.01
Oc1c(Cl)cc(Cl)cc1Sc1cc(Cl)cc(Cl)c1O | 0.0755
O=P1(NCCCl)OCCCN1CCCl (centres undefined) | 1.01
CNNC | 1.01
NC(=O)c1cccnc1 | 1
OC[C@H]1O[C@@H](O[C@@H]2[C@@H](CO)O[C@](O)(CO)[C@H]2O)[C@H](O)[C@@H](O)[C@H]1O | 0.996
C[C@H](CCC(=O)O)[C@H]1CCC2C3C(=O)CC4CC(=O)CC[C@]4(C)C3CC(=O)[C@@]21C (some centres undefined) | 1
CC(=O)c1cc(CC=C(C)C)c(O)c(CC=C(C)C)c1 | 1.01
CN(C)[C@@H]1C(=O)C(C(N)=O)=C(O)[C@@]2(O)C(=O)C3=C(O)c4c(O)cccc4[C@@](C)(O)[C@H]3[C@H](O)[C@@H]12 | 1.01
CC(=O)OCC(=O)[C@@]1(O)[C@H](C)CC2C3CCC4=CC(=O)C=C[C@]4(C)[C@@]3(F)[C@@H](O)C[C@@]21C (some centres undefined) | 1.02
NCC(=O)c1ccccc1 | 0.991
COC(=O)/C(=C1\OC(=O)C(c2ccccc2)=C1O)c1ccccc1 | 0.981
O=C(OOC(=O)c1ccccc1)c1ccccc1 | 0.95
O=C(O)c1cccnc1 | 1.02
N=C(N)N | 0.983
CN(C)[C@@H]1C(=O)C(C(N)=O)=C(O)[C@@]2(O)C(=O)C3=C(O)c4c(O)ccc(Cl)c4[C@@H](O)[C@H]3C[C@@H]12 | 0.947
NC(=O)NC(=O)Cc1ccccc1 | 1.02
CN1CCN(C(=O)OC2c3nccnc3C(=O)N2c2ccc(Cl)cn2)CC1 (centres undefined) | 1.01
Cc1c(C)c2c(c(C)c1O)CCC(C)(CCCC(C)CCCC(C)CCCC(C)C)O2 (centres undefined) | 0.988
CCCN(CCC)S(=O)(=O)c1ccc(C(=O)O)cc1 | 0.99
NS(=O)(=O)c1cc2c(cc1Cl)NC(CSCc1ccccc1)=NS2(=O)=O | 0.976
CN(C)C(=O)Oc1cccc([N+](C)(C)C)c1 | 0.996
C[C@H]1c2cccc(O)c2C(O)=C2C(=O)[C@]3(O)C(O)=C(C(N)=O)C(=O)[C@@H](N(C)C)[C@@H]3[C@@H](O)[C@@H]21 | 0.944
COc1ccc([C@@H]2CC(=O)c3c(O)cc(O[C@@H]4O[C@H](CO[C@H]5O[C@@H](C)[C@H](O)[C@@H](O)[C@H]5O)[C@@H](O)[C@H](O)[C@H]4O)cc3O2)cc1O | 0.97
CC(C)NCC(O)COc1ccc(COCCOC(C)C)cc1 (centres undefined) | 0.999
NCC(N)C(=O)c1ccccc1 (centres undefined) | 1.04
CC[N+](C)(C)c1cccc(O)c1 | 1.06
CC(=O)c1ccc(O)c(CC=C(C)C)c1 | 0.933
CC(C)(C)NCC(O)c1ccc(O)c(CO)c1 (centres undefined) | 1.02
OC[C@H]1O[C@@H](O[C@H]2[C@H](O)[C@@H](O)[C@@H](O)O[C@@H]2CO)[C@H](O)[C@@H](O)[C@@H]1O | 0.997
Oc1cccc(O)c1 | 0.944
COC(=O)c1c(OC)cc2c(c1C)Oc1c(Cl)c(O)c(Cl)c(C)c1C(=O)O2 | 0.964
O=C(NCO)c1cccnc1 | 1
